# IC50 per entry
Biological target: N-terminal GST tagged recombinant human RET cytoplasmic domain (aa 658-end), wild type RET kinase (Homo sapiens (Human), UniProt P07949)
Sequence (P07949 658-1114): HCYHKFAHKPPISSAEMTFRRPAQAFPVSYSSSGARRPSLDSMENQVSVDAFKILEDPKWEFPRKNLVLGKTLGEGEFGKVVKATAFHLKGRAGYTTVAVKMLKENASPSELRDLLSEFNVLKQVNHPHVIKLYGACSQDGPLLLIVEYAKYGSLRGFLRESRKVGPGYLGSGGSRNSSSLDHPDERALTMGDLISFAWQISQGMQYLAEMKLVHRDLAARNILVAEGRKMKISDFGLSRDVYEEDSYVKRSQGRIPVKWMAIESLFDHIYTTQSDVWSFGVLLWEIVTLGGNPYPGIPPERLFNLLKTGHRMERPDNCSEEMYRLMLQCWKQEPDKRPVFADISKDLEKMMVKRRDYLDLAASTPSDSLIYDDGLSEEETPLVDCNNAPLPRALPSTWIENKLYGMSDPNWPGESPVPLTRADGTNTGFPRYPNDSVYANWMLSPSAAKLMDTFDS
Assay: RET Enzyme Assay (HTRF KinEASE-TK), wild type RET
Assay type: biochemical
Details: wild type RET, 1 mM ATP
Structures can show the parent of a compound that is named as a salt.
Express the result in nM but write the number alone.

Answered cases to consult:
>  <COMPOUND>
CNC(=O)N1CCN(c2ccc(-c3cc(-c4cnn(C)c4)cn4ncc(C#N)c34)cn2)CC1 [Example 387]

>  <RECORDED_RESULT>
25.1

$$$$
>  <COMPOUND>
N#Cc1cnn2cc(-c3cnn(C(F)F)c3)cc(-c3ccc(N4CCNCC4)nc3)c12 [Example 266, dihydrochloride]

>  <RECORDED_RESULT>
47.7

$$$$
>  <COMPOUND>
C[C@@H](O)C(=O)NC1CCN(c2ccc(-c3cc(-c4cnn(C)c4)cn4ncc(C#N)c34)cn2)CC1 [Example 181]

>  <RECORDED_RESULT>
10.5

$$$$

Turning now to a further record.
Q) State the recorded IC50 for this entry: Cn1cc(-c2cc(-c3ccc(N4CCN(C(=O)NC(C)(C)C)CC4)nc3)c3c(C#N)cnn3c2)cn1 [Example 128]
A) 11.6
